# Assay method text: NCI Yeast Anticancer Drug Screen. Data for the mec2-1 strain (AID 157)
# Condition: S. cerevisiae mec2-1 strain, at 50.0 µM (retest, dose inferred, filed as 5.0), hits give high values
Compounds without any hit were thinned out: in the full panel of roughly 79,000, 15% have a hit. Where a SMILES comes first, the peptide text is derived from it. The star is where a group is joined. Cbz = O=C(OCc1ccccc1)*
Reported growth inhibition by item:
Endpoint label: growth inhibition (%)

CCc1ccccc1SC(C)=O; 70
CCC1CCC2C3CC=C4CC(OC(C)=O)C(N)CC4(C)C3CCC12C (stereo not given); 94
Cn1c(-c2ccc(/C=N/NC(=S)N/N=C/c3ccc(-c4c[n+]5ccsc5n4C)cc3)cc2)c[n+]2ccsc12; 98
CCCCCCCCCCC(NC(C)=O)(C(=O)OCC)C(=O)OCC; 99
O[C@H]1c2cccn2-c2ccccc2S[C@H]1c1ccccc1; 99
CC(C)/C(Cl)=N/OC(NC(=O)Nc1ccc(Cl)c(Cl)c1)(C(F)(F)F)C(F)(F)F; 100
COC(=O)Nc1nc2ccc(CCC(=O)c3c(C)oc(C)c3-c3ccc(NC(C)=O)cc3)cc2[nH]1; 55
CCOC(=O)CNC(=O)CNC(=O)CNC(=O)OCc1ccccc1 (Cbz-Gly-Gly-Gly-OEt); -3
CCOC(=O)Nc1nc2ccc(Cn3cccc3)cc2[nH]1; 22
C/C=C/c1ccc(OCC(=O)O)c(OC)c1; -18

====

# Assay method text: NCI Yeast Anticancer Drug Screen. Data for the mlh1 rad18 strain (AID 175)
# Condition: S. cerevisiae mlh1 rad18 strain growth inhibition; at 50.0 µM; hits give high values
This is part of a sample that, as a whole, favours compounds with a hit. Of some 79,000 tested, about 15% had one in any assay. Calls of active or inactive are those of the source. Cut-off read from the data, not from the text of the source: active = growth inhibition above about 70%; inactive = the rest.
Reported growth inhibition by item:
Endpoint label: growth inhibition

O=C1CSC(c2ccccc2O)N1c1ccc(-n2c(-c3ccccc3)nc3ccccc3c2=O)cc1 (stereo not drawn); 75.5% (active)
C[C@]12C[C@H](c3ccccc3)Nc3ccccc3N1C(c1ccccc1)=NO2; 71% (active)
CCC[CH2][Sn]([CH2]CCC)([O]C(=O)C(OC)c1ccccc1)[O]C(=O)C(OC)c1ccccc1 (stereo not drawn); 88.3% (active)

====

# Assay method text: NCI Yeast Anticancer Drug Screen. Data for the mlh1 rad18 strain (AID 175)
# Condition: S. cerevisiae mlh1 rad18 strain growth inhibition; at 50.0 µM (retest, dose inferred, filed as 5.0); hits give high values
The panel holds about 79,000 compounds, 15% with a hit somewhere; the sample as a whole holds those more often.
Parameter threshold = 80%. Response is met when growth inhibition meets or exceeds it, else not met.

Cc1ccc2c(ccc3ccccc32)c1; not met
COc1cc(C2C(C(=O)O)=C(C)Oc3cc4c(cc32)OCO4)cc(OC)c1OC (configuration not stated); met
O=C1CSC(=S)N1/N=C/c1ccc(Cl)c([N+](=O)[O-])c1; met
O=C(Nc1cc(-c2ccccc2)[nH]n1)c1ccccc1; not met
COc1ccc(CN2COc3c(cc(C)c4cccnc34)C2)cc1; met
C=C1CC/C=C(/C(=O)O)CC[C@H]2[C@@H]1CC2(C)C; not met
O=C1C(Br)=C(Sc2ccc([N+](=O)[O-])cc2)C(=O)c2ccccc21; met
COc1ccc(/C=C/C(C)=N/NC(=S)NCC(C)C)cc1; not met
COc1ccc(CC2c3cc4c(cc3CCN2C)OCO4)c(C=O)c1OC (configuration not stated); not met
COc1ccc(/C=N/N=c2\[nH][nH]/c(=N\N=C\c3ccc(OC)c4ccccc34)c3ccccc23)c2ccccc12; met
CCCCCC(C)[P+](c1ccccc1)(c1ccccc1)c1ccccc1 (configuration not stated); met
CCOC(=O)C(NC(C)=O)[CH](c1ccccc1)[Sn]([c]1ccccc1)([c]1ccccc1)[c]1ccccc1 (configuration not stated); met
O=C(Nc1ccc(O)cc1O)c1ccccc1; not met
S=c1[nH]c2cc(Cl)ccc2s1.[Zn+2]; met
COc1ccc2c(c1)CN1C(CCC3c4ccccc4NC31)C2 (configuration not stated); not met

====

# Assay method text: NCI Yeast Anticancer Drug Screen. Data for the mlh1 rad18 strain (AID 175)
# Condition: S. cerevisiae mlh1 rad18 strain growth inhibition; at 50.0 µM; hits give high values
This is part of a sample that, as a whole, favours compounds with a hit. Of some 79,000 tested, about 15% had one in any assay.
Reported growth inhibition by item:
Endpoint label: growth inhibition (%)

Oc1ccc2ccccc2c1I; 90.8
CCN(CC)CCSCCCNc1cc(C)nc2c1ccc1c2ccc2c(NCCCSCCN(CC)CC)cc(C)nc21; 95.8
CN(C)CC1CCc2ccc3ccccc3c2C1=O (stereo not given); 15.4
CSC(SC)=C1C(=O)NC(Cc2ccccc2)C1=O (stereo not given); 83
CN(C)C(=S)/N=c1\ss/c(=N\C(=S)N(C)C)n1Cc1ccco1; -3.15
O/N=C(/CCc1ccccc1)c1ccccc1; 97.2
C=C1CC(COc2ccc3c(C)cc(=O)oc3c2)(c2ccccc2)OC1=O (stereo not given); 41.6
CC(C)C(=O)N1Cc2cc(Cl)cc(Cl)c2OC(=O)c2ccccc21; 57.9
CC1(C)OC(=O)C(=NNc2ccccc2[N+](=O)[O-])C(=O)O1; 18.1
O=C1C=CC(=O)C2C1Cc1ccccc1C2c1ccccc1 (stereo not given); 98.5

====

# Assay method text: NCI Yeast Anticancer Drug Screen. Data for the bub3 strain (AID 167)
# Condition: S. cerevisiae bub3 mutant strain, at 50.0 µM, hits give high values
Compounds without any hit were thinned out: in the full panel of roughly 79,000, 15% have a hit.
Endpoint label: growth inhibition (%)

O=C(Oc1ccc(O)c2ccccc12)c1ccccc1; 98.5
O=C(CN1CCOCC1)Nc1nc(-c2ccc(Cl)cc2)cs1; 77.6
COC(=O)c1c(C(N)=O)c(C)n(NC(=O)Nc2ccccc2)c1C; 86.2
CC(=O)O/N=C1/CCC2C3CC=C4CC(OC(C)=O)CCC4(C)C3CCC12C (stereo not drawn); 41.5
CCOC(CCl)Oc1c(C(C)C)cc(C(C)C)c(Cl)c1C (stereo not drawn); 97.3
CC(C)(C)OC(=O)N(CCCCNCc1ccc2ccccc2c1)CCCNCc1ccc2ccccc2c1; 90.5
COc1ccc(/C(C#N)=C(/N)SCc2ccccc2Cl)cc1; 83.5
S=C1NCCNC(=S)SS1; 98.8
Cc1cc(N=[N+]=[N-])c2cc(C3CCCCC3)ccc2n1; 90.9
O=C1c2c(Br)c(Br)c(Br)c(Br)c2C(=O)N1c1nccs1; 69.4
Nc1nc(Cl)cc(Nc2ccc(Cl)c(Cl)c2)n1; 93.2
Cn1cnc([N+](=O)[O-])c1Sc1nnnn1-c1ccccc1; 80.8
C[C@]12CC[C@H]3[C@@H](CCC4=CC(=O)CC[C@@]43C)[C@@H]1CC[C@@H]2O[Si](O[C@H]1CC[C@H]2[C@@H]3CCC4=CC(=O)CC[C@]4(C)[C@H]3CC[C@]12C)(O[C@H]1CC[C@H]2[C@@H]3CCC4=CC(=O)CC[C@]4(C)[C@H]3CC[C@]12C)c1ccccc1; 81.5

====

# Assay method text: NCI Yeast Anticancer Drug Screen. Data for the bub3 strain (AID 167)
# Condition: S. cerevisiae bub3 mutant strain, at 5.0 µM (retest, dose inferred, filed as 0.5), hits give high values
About 79,000 compounds went through this panel and 15% of them were active in at least one assay; those are over-represented in the sample as a whole.
Endpoint label: growth inhibition (%)

CCCCCCCCCc1cc(=O)[nH]c(=S)[nH]1; 8
CCc1c(C)[nH]c(-c2csc(N)n2)c1C; 4
O=C(NO)Nc1nc(Cl)c(Cl)nc1Cl; 6
c1ccc(C2=NCCC(c3ccccc3)S2)cc1 (stereo not drawn); 2
COc1cc(C2C=C(c3ccccc3)Oc3cc4c(cc32)OCO4)cc(OC)c1OC (stereo not drawn); -33
CCCCCCCSCc1nc2ccccc2c(C)[n+]1[O-]; -2
C=CCc1cc(Cl)ccc1O; 0
CC(=O)OCc1cc(=O)n(C)c2c3c4c(cc12)c(C)cc(=O)n4CO3; 86
N#Cc1c(Cl)nnc(-c2ccccc2)c1-c1ccccc1; 1
CCCC(C(=O)OCCN1CCCC1(C)C)C1CCCC1 (stereo not drawn); 45
CCOC(=O)C[n+]1c(C)sc2ccccc21; -6
Cc1nc(N)sc1N=Nc1ccc(Cl)cc1Cl; 1
C[n+]1c(-c2ccc(/C=N/Nc3n[nH]c(=S)n3/N=C/c3ccc(-c4cn5ccsc5[n+]4C)cc3)cc2)cn2ccsc21; -29

====

# Assay method text: NCI Yeast Anticancer Drug Screen. Data for the sgs1 mgt1 strain (AID 161);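 also: 0% = growth of cultures given vehicle only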
# Condition: S. cerevisiae sgs1 mgt1 strain, at 50.0 µM
About 79,000 compounds went through this panel and 15% of them were active in at least one assay; those are over-represented in the sample as a whole. The source made the active and inactive calls. Cut-off read from the data, not from the text of the source: active = growth inhibition above about 70%; inactive = the rest.
Outcomes: 1 = active, -1 = inactive

CCCCc1c2c(nc3c1CC/C(=C\c1ccc([N+](=O)[O-])cc1)C3=O)CCCC2; 1
CCOC(=O)C(NC(C)=O)[CH](c1ccccc1)[Sn]([c]1ccccc1)([c]1ccccc1)[c]1ccccc1 (configuration not stated); 1
O=[N+]([O-])c1cccn2nc(C3OC(CO)C(O)C3O)nc12 (configuration not stated); -1
COC(=O)C1(NC(=O)C(CC(=O)OCc2ccccc2)NC(=O)OCc2ccccc2)CCCCCC1 (configuration not stated); -1
CC(C(=O)O)C(N)C(=O)O (configuration not stated); 1
COc1ccc(/C=C2/C(=O)NC3SC=C(c4cccc([N+](=O)[O-])c4)N23)cc1 (configuration not stated); -1
CS(=O)(=O)OCCN(CCOS(C)(=O)=O)c1ccc(C=Nc2cccc(Br)c2)c(Cl)c1; -1
CC(C)c1cc2c(cc1O)C(O)C1(O)CCCC(C)(C)[C@H]1CC2 (some centres not stated); 1
Nc1nc(-c2ccccn2)cc2cc(Cl)ccc12; -1
O=C(C(/C=N\C(=S)Nc1ccccc1Cl)=C(/O)c1ccccc1)c1ccccc1; 1
CCOP(=O)(OCC)/C(C#N)=C/c1ccc(Oc2ccccc2)cc1; 1
Oc1cccc(-c2nc(-c3ccccc3)c(-c3ccccc3)[nH]2)c1; -1
O=C1c2ccc3c4ccccc4n(Cc4ccccc4)c3c2C(=O)N1c1ccccc1; 1
COc1ccc(C2=C/C(=C3\C(=O)Oc4ccccc4C3=O)SS2)cc1; -1
S=C(Nc1ccc2cn[nH]c2c1)Nc1ccc2cn[nH]c2c1; -1
OC(CC(O)(C(F)(F)Cl)C(F)(F)Cl)c1ccccc1 (configuration not stated); 1
CCCCOC(=O)c1ccc(S(=O)(=O)c2ccc(C(=O)OCCCC)cc2)cc1; -1
C1CCC2[N-]CC3CCCCC3[N-]CC3CCCCC3[N-]CC3CCCCC3[N-]CC2C1.[Cl][Fe]([Cl])([Cl])[Cl].[Fe+6] (configuration not stated); 1
O=C(N/C(=C\c1ccc(Oc2ccc(Cl)c(Cl)c2)cc1)c1nc2ccccc2[nH]1)c1ccccc1; 1
CC(C)c1cc(C(C)C)c(Cl)c(Cl)c1O (tested in a mixture with another compound); 1
CC1(C)CC(=O)C2=C(C1)OC1=C(C(=O)CC(C)(C)C1)C2CC(c1ccccc1)c1ccc(O)c(O)c1O (configuration not stated); -1
O=S(=O)(c1ccccc1)C1CN=NC1c1ccccc1 (configuration not stated); 1
CC1(C)CC[C@]2(C(=O)O)CC[C@]3(C)C(=CC[C@@H]4[C@@]5(C)C[C@H](O)[C@H](O)[C@@](C)(C(=O)O)[C@@H]5CC[C@]43C)[C@@H]2C1; 1
O=C(Nc1ccc(F)cc1)N1CCCCC1; -1
CC(NNC(=S)N1CCCCCC1)c1cccnn1 (configuration not stated); 1
NC(=O)Nc1cc(=O)[nH]c(=S)[nH]1; -1
CC(=O)OC1CCC(C(C)(C)C)C(C)C1 (configuration not stated); -1
Nc1ccc(S(=O)(=O)NCc2nccs2)cc1; -1
O=c1c2ccccc2c2ccccc2n1O; 1
CN(C)C1=NC(N(C)C)=C2C=CC=C12; -1
Nc1ccccc1C(=O)/C=C/c1ccccc1; 1
CCCCCCCn1ccnc1NCCCCCCCCCCNc1nccn1CCCCCCC; -1
O=C(O)CCCCCCCCCCOc1ccc(Cl)cc1Cl; 1
CCOC(=O)c1ccc(NC(=O)O/N=C(/Cl)CCl)cc1; -1
C/C(=N\NC(=S)N(C)C)c1cccnn1; 1
CCS/C(SC)=C(/c1ccccc1)[P+](c1ccccc1)(c1ccccc1)c1ccccc1; 1
C=C(c1ccccc1)[P+](c1ccccc1)(c1ccccc1)c1ccccc1; 1

Measured values drawn from PubChem BioAssay (NCI) for this set.
